B1: NCF4 (parent)
chain: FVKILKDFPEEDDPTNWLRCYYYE

# Variants of: B1
# Protocol Description: protein stability index of a GFP-peptide fusion (GPS, HEK-293T) (PSI 1-6); higher = more stable;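 further: lentivirally expressed fusions sorted by FACS into six bins by GFP to DsRed ratio, PSI derived from sequencing read proportions per bin multiplied by bin number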
# Experimental Conditions: c terminus: a fixed tail appended
Readout Type: protein stability index
Reply briefly: the number, and no unit.

As a guide, the following entries are already answered.
Item Sequence	protein stability index
FVKILKDFPEEDDPTNWLRCYYYK [E24K]	1.99
FVKILKDFPEEDDPTNWLRQYYYE [C20Q]	2.03
FVKLLKDFPEEDDPTNWLRCYYYE [I4L]	2.02
FVKILKDFPEEDDPTNWYRCYYYE [L18Y]	1.96
FVKILKDFPEEDDPTNWLRCKYYE [Y21K]	2.47
FVKILKDFPEEDDPTNWLHCYYYE [R19H]	3.89
FVKILKDFPEEDDPTNWLRAYYYE [C20A]	1.58
FVKILKDFPEEDDPTWWLRCYYYE [N16W]	1.58
IVKILKDFPEEDDPTNWLRCYYYE [F1I]	2.09
FVKILVDFPEEDDPTNWLRCYYYE [K6V]	3.01

Using the record for FVKILKDFPEEGDPTNWLRCYYYE [D12G] , report its protein stability index.
2.33

Using the record for FVKILKDFPEEDDPTNWLRCYYIE [Y23I] , report its protein stability index.
1.5
